Value source: patent US20230310428A1

# pIC50 annotations
biological target: various mutants of kinase EGFR (BaF3 cell lines stably transfected with kinase) (Homo sapiens, UniProt P00533, L858R); construct: expressed in transfected cells; host or cells: BaF3; assay: Growth inhibitory activity of compounds on BaF3 cell lines stably transfected with kinase (MTS, 48 h); format: cell-based; settings: BaF3 cell line stably transfected with EGFR L858R, read-out: L858R growth inhibitory activity IC50
Sequence (P00533 25-1210 L858R): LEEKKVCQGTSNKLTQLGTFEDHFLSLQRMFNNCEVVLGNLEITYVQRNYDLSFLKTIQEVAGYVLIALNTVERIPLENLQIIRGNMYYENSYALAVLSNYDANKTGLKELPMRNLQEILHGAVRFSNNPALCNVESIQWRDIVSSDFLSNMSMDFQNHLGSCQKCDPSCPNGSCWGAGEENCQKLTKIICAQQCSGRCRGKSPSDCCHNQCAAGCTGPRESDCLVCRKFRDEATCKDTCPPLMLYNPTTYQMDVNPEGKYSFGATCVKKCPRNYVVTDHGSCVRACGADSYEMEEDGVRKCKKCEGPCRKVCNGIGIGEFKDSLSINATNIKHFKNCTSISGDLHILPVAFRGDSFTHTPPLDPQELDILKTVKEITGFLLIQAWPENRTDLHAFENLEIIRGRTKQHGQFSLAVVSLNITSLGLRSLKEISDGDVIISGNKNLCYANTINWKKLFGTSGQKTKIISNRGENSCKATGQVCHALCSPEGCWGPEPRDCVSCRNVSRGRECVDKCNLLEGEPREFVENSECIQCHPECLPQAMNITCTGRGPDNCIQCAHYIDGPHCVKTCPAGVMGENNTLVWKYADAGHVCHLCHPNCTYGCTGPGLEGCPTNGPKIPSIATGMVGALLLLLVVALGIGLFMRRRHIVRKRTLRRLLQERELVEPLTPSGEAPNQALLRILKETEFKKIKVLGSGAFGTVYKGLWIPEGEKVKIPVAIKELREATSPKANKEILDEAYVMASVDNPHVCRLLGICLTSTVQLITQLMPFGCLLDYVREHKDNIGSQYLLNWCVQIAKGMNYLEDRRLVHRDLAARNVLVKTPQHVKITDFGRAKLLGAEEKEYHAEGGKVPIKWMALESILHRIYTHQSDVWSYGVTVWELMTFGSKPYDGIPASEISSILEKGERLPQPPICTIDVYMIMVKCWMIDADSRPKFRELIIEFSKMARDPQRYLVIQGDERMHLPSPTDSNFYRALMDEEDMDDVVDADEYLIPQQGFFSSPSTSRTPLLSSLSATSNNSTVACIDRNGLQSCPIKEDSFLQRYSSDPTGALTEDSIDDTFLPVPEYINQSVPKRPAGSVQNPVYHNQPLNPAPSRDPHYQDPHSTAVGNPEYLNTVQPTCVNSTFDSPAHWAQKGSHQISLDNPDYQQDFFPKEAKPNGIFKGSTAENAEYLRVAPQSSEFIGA
pIC50: −log10 of the molar value.

[
  {
    "compound": "CCc1cc(Nc2ncc(C#N)c(Nc3ccc4nccnc4c3N(C)S(C)(=O)=O)n2)ccc1N1CCC(N2CCN(C)CC2)CC1",
    "pIC50": "≥ 7.30"
  },
  {
    "compound": "CCc1cc(Nc2ncc(CC)c(Nc3ccc4nccnc4c3N(C)S(C)(=O)=O)n2)c(OC)cc1N1CCC(N(C)C)C1 (centres unmarked)",
    "pIC50": "≥ 7.30"
  },
  {
    "compound": "COc1cc(N2CCN(C)CC2)c(C)cc1Nc1nc(Nc2ccc3nccnc3c2N(C)S(C)(=O)=O)c2cc[nH]c2n1",
    "pIC50": "6.30 to 7.30"
  },
  {
    "compound": "CCc1cc(Nc2nc(Nc3ccc4nccnc4c3N(C)S(C)(=O)=O)c3sccc3n2)c(OC)cc1N1CCC(N(C)C)CC1",
    "pIC50": "6.30 to 7.30"
  },
  {
    "compound": "COc1cc(N2CCC(N3CCN(C)CC3)CC2)ccc1Nc1nc(Nc2ccc3nccnc3c2N(C)S(C)(=O)=O)c2occc2n1",
    "pIC50": "5.60 to 6.30"
  }
]

In: For the compound `CCc1cnc(Nc2ccc(N3CCC(N4CCN(C)CC4)CC3)c(F)c2F)nc1Nc1ccc2nccnc2c1N(C)S(C)(=O)=O` , what pIC50 is on record?
Out: 6.30 to 7.30

In: Reported pIC50, compound `CCOc1cnc(Nc2cc(C)c(N3CCC(N4CCN(C)CC4)CC3)cc2OC)nc1Nc1ccc2nccnc2c1N(C)S(C)(=O)=O` : ____
Out: 6.30 to 7.30

In: What does the record list as pIC50 for `CCc1cc(Nc2ncc(Br)c(Nc3ccc4nccnc4c3N(C)S(C)(=O)=O)n2)c(OC)cc1NCCO` ?
Out: 6.30 to 7.30
